system: Yap1 mRNA; assay: Antisense inhibition of human Yap1 in SNU-449 cells by modified oligonucleotides, single dose (Example 5, RTS36584); type: cell-based; details: Table 49; Yap1 mRNA level relative to untreated control; modified oligonucleotides targeting SEQ ID NO.: 1 and 2
Strand notation (5' to 3'): a small letter for the sugar, then the base; units joined by * are phosphorothioate-linked, units joined directly phosphodiester-linked; [ ] holds rarer units or linkages, { } end groups; capitals alone tell only the bases. e = 2'-O-(2-methoxyethyl) (MOE); k = constrained ethyl (cEt); [5mC] = 5-methylcytosine; d = 2'-deoxy (DNA)
# YAP1 (% UT) annotations
Numeric answer only, unit % UT assumed.

Completed entries (count: 2):
Form: substance = 1198566 (antisense kT*kT*kT*dT*dA*d[5mC]*dA*dT*dT*dA*dG*dG*kA*kA*k[5mC]*eA) [Compound 1198566] ; YAP1 (% UT) = 83

For this substance ( 1198550 (antisense kA*kT*kA*dT*dG*dG*dA*dA*dA*dT*dT*dG*kT*k[5mC]*kT*e[5mC]) [Compound 1198550] ), measured YAP1 (% UT) is 17

Next, consider the following substance.
# YAP1 (% UT) of 1198338 (k[5mC]*kT*k[5mC]*dT*dT*dA*dT*dA*dT*dG*dG*dT*kT*eT*kT*eG; antisense) [Compound 1198338] = 24

###

This listing pairs substances with measured AST.
experiment: Cynomolgus monkey tolerability, kidney and liver function markers (Example 34); settings: cynomolgus monkeys, 35 mg/kg subcutaneously, day 44
Kindly provide the numeric value in IU/L only, without the unit symbol.

Known AST results, listed for orientation:
The substance listed as 1076453 (GTAATATTGCAATCTG; 3-10-3 cEt gapmer, further chemistry not given here) [compound 1076453] has a reported AST of 76

Just so you know, measured AST for 1198439 (AGTGTATGTCAGAAGA; sugar, 5-methylcytosine, phosphorothioate modifications, further chemistry not given here) [compound 1198439] came out at 65

Kindly note the recorded AST for 1198440 (AAGTGTATGTCAGAAG; cEt, 2'-MOE, 5-methylcytosine, phosphorothioate modifications, further chemistry not given here) [compound 1198440] , which is 75

New cases:
Memo: 1198872 (TGTATGTCAGAAGAGT; chemically modified gapmer, further chemistry not given here) [compound 1198872] , reported AST: 94

###

test: Tolerability in Balb/c mice, plasma chemistry markers (Example 11); format: in vivo; details: 50 mg/kg subcutaneously twice a week for four weeks
Strand notation (5' to 3'): a small letter for the sugar, then the base; units joined by * are phosphorothioate-linked, units joined directly phosphodiester-linked; [ ] holds rarer units or linkages, { } end groups; capitals alone tell only the bases. k = constrained ethyl (cEt); [5mC] = 5-methylcytosine; d = 2'-deoxy (DNA)
attribute.measured: ALT (U/L)
State just the number; it will be interpreted in U/L.

Reported ALT ( 716502 (antisense k[5mC]*kA*k[5mC]*dA*dG*dT*dG*dA*dT*dT*dG*d[5mC]*dA*kT*kT*kT) [compound 716502] ) = 2920

Continuing:
Per the records, this substance ( 716455 (antisense kG*kT*kT*dA*dT*dG*dT*dT*dT*dG*dG*dG*dT*kG*kT*kG) [compound 716455] ) has ALT equal to 1089

Documented ALT of 715483 (k[5mC]*kT*k[5mC]*dT*dT*dT*dG*dG*dA*dA*dA*d[5mC]*d[5mC]*kA*kT*kT) [compound 715483] : 62

Form field ALT, entry 716454 (antisense k[5mC]*kG*kA*dG*dA*dT*dT*dT*dA*dA*dA*dT*dA*kA*kG*kG) [compound 716454] : 39

###

YAP1 (% UT) by entry:
test system: Yap1 mRNA; test: Antisense inhibition of human Yap1 in SNU-449 cells by modified oligonucleotides, single dose (Example 5, RTS36584); type: cell-based; settings: Yap1 mRNA, percent of untreated control; modified oligonucleotides targeting SEQ ID NO: 1 and 2; Table 47
Strand notation (5' to 3'): a small letter for the sugar, then the base; units joined by * are phosphorothioate-linked, units joined directly phosphodiester-linked; [ ] holds rarer units or linkages, { } end groups; capitals alone tell only the bases. e = 2'-O-(2-methoxyethyl) (MOE); k = constrained ethyl (cEt); [5mC] = 5-methylcytosine; d = 2'-deoxy (DNA)
Give the quantity in % UT, number only.

YAP1 (% UT) reading for 1198877 (kT*kT*dA*dA*dA*dG*dT*dG*dT*dA*dT*kG*eT*k[5mC]*eA*kG; antisense) [Compound 1198877] : 11

Further cases:
# YAP1 (% UT) (substance: 715487 (antisense kA*kT*kT*dA*d[5mC]*dT*dT*d[5mC]*dA*dT*dA*dG*d[5mC]*kT*kT*kA) [Compound 715487] ) is 39

###

system: Yap1 mRNA; assay: Antisense inhibition of human Yap1 in SNU-449 cells by modified oligonucleotides, single dose (Example 5, RTS36584); assay type: cell-based; details: Table 50; Yap1 mRNA remaining as percent of untreated control (UT), SNU-449 cells, single dose
Strand notation (5' to 3'): a small letter for the sugar, then the base; units joined by * are phosphorothioate-linked, units joined directly phosphodiester-linked; [ ] holds rarer units or linkages, { } end groups; capitals alone tell only the bases. e = 2'-O-(2-methoxyethyl) (MOE); k = constrained ethyl (cEt); [5mC] = 5-methylcytosine; d = 2'-deoxy (DNA); m = 2'-O-methyl
# reported YAP1 (% UT); entries follow
Hi! Could you send only the number? It should be in % UT, unit omitted.

Worked cases, YAP1 (% UT) given:
The reported YAP1 (% UT) of the substance 1197288 (kT*k[5mC]*kT*dA*mU*dA*dT*dT*dA*dG*dA*dG*dT*kA*kT*kG; antisense) [Compound 1197288] was 94

Entry 1198618 (antisense kA*kA*k[5mC]*dT*dT*dT*dA*dA*dA*dG*dT*dG*kT*kA*kT*eG) [Compound 1198618] , YAP1 (% UT) reported as 74

Recorded YAP1 (% UT) (substance 1197234 (antisense kT*kT*kA*dG*mA*dG*dT*dA*dT*dG*dT*dG*dG*k[5mC]*kA*kA) [Compound 1197234] ): 24

// sample 1198594 (antisense k[5mC]*kT*kT*dA*dT*dA*dT*dG*dG*dT*dT*dT*kT*kG*kT*eG) [Compound 1198594] , its YAP1 (% UT) was 23

Record 1197291 (k[5mC]*kT*kT*dT*mU*dA*d[5mC]*dA*dT*dT*dA*dG*dG*kA*kA*k[5mC]; antisense) [Compound 1197291] , field YAP1 (% UT): 83

// below: YAP1 (% UT) requested for another substance
Data point: 1198623 (k[5mC]*kT*kA*dA*dG*dT*dA*dA*dG*dG*dT*dT*kT*k[5mC]*k[5mC]*e[5mC]; antisense) [Compound 1198623] ; YAP1 (% UT) = 9

###

Measured YAP1 (% UTC) accompanies every entry in the list below.
system: Yap1 mRNA; assay: Antisense inhibition of human Yap1 in SNU-449 cells by modified oligonucleotides, single dose (Example 5, RTS36584); format: cell-based; conditions: Table 43 experiment; SNU-449 cells, 10,000 cells per well, free uptake, 2,000 nM, approximately 48 hours; RTS36584; Yap1 mRNA normalized to RIBOGREEN, relative to untreated control cells
Strand notation (5' to 3'): a small letter for the sugar, then the base; units joined by * are phosphorothioate-linked, units joined directly phosphodiester-linked; [ ] holds rarer units or linkages, { } end groups; capitals alone tell only the bases. e = 2'-O-(2-methoxyethyl) (MOE); k = constrained ethyl (cEt); [5mC] = 5-methylcytosine; d = 2'-deoxy (DNA)
Please give a number only; it is taken to be in % UTC.

As a guide, the following entries are already answered.
According to the records, this substance 1095593 (antisense kT*kG*dA*dG*dG*dT*dA*dT*dA*dA*d[5mC]*eT*eG*eG*kG*k[5mC]) [Compound 1095593] displays YAP1 (% UTC) of 16

Per the record, 1198266 (kT*kG*dT*dA*dT*dG*dT*d[5mC]*dA*dG*dA*eA*eG*eA*kG*kT; antisense) [Compound 1198266] has YAP1 (% UTC) of 25

Short answer for 1198270 (kT*kA*dA*dA*dG*dT*dG*dT*dA*dT*dG*eT*e[5mC]*eA*kG*kA; antisense) [Compound 1198270] : YAP1 (% UTC) was 52

---
YAP1 (% UTC) reported for this substance 1198267 (kA*kG*dT*dG*dT*dA*dT*dG*dT*d[5mC]*dA*eG*eA*eA*kG*kA; antisense) [Compound 1198267] : 7

Just so you know, measured YAP1 (% UTC) for 1198279 (k[5mC]*kT*dA*dA*dG*dT*dA*dA*dG*dG*dT*eT*eT*e[5mC]*k[5mC]*k[5mC]; antisense) [Compound 1198279] came out at 43

The measured YAP1 (% UTC) associated with 1198269 (kA*kA*dA*dG*dT*dG*dT*dA*dT*dG*dT*e[5mC]*eA*eG*kA*kA; antisense) [Compound 1198269] reads 58

The substance identified as 1198456 (kT*kG*dT*d[5mC]*dT*d[5mC]*dA*dT*dG*d[5mC]*d[5mC]*eT*kT*eA*kT*eA) [Compound 1198456] registered its YAP1 (% UTC) at 21

Value source: patent US11214803B2
